Provide the reported Activity of each item.
testMethodNotes: In vitro inhibition of KB cell growth.
Assay type: functional, Homo sapiens

// known answers, use as guide
CC(C)c1ccc(C(c2ccc(O)cc2)c2ccc(C(C)C)cc(=O)c2O)c(O)c(=O)c1    <0.3 µg/mL
CC(=O)Nc1ccc(C(c2ccc(C(C)C)cc(=O)c2O)c2ccc(C(C)C)cc(=O)c2O)cc1    <0.3 µg/mL
COc1cc(C(c2ccc(C(C)C)cc(=O)c2O)c2ccc(C(C)C)cc(=O)c2O)cc(OC)c1OC    <0.3 µg/mL
CC(C)c1ccc(C(c2ccc(OCc3ccccc3)cc2)C(c2ccc(OCc3ccccc3)cc2)c2ccc(C(C)C)cc(=O)c2O)c(O)c(=O)c1 (configuration not stated)    <100 µg/mL
CC(C)c1ccc(C(c2cccc3ccccc23)C(c2ccc(C(C)C)cc(=O)c2O)c2cccc3ccccc23)c(O)c(=O)c1 (configuration not stated)    <100 µg/mL

Items follow; give Activity for each.
1. CC(C)c1ccc(C(c2ccccc2)c2ccc(C(C)C)cc(=O)c2O)c(O)c(=O)c1
2. COc1ccc(C(c2ccc(C(C)C)cc(=O)c2O)c2ccc(C(C)C)cc(=O)c2O)cc1

Completion:
1. <0.3 µg/mL
2. <0.3 µg/mL

====

Test system: P388
testMethodNotes: Antitumor activity in P388 inoculated mice following 5 mg/kg i.p. administration.
Type: functional, Mus musculus
conditionContext: route intraperitoneal
Assignment: determine reported T/C for the given compounds.
The reply should read as a number followed by its unit.

Worked examples, 5 compounds total:
CC(C)c1ccc(C(c2ccc([N+](C)(C)C)cc2)c2ccc(C(C)C)cc(=O)c2O)c(O)c(=O)c1.[I-]    102%
CC(C)c1ccc(C(c2ccc(O)cc2)c2ccc(C(C)C)cc(=O)c2O)c(O)c(=O)c1    195%
CCOC(=O)COc1ccc(C(c2ccc(C(C)C)cc(=O)c2O)c2ccc(C(C)C)cc(=O)c2O)cc1    125%
CC(C)c1ccc(C(c2ccc(N)cc2)c2ccc(C(C)C)cc(=O)c2O)c(O)c(=O)c1    138%
CC(C)c1ccc(C(c2cccs2)c2ccc(C(C)C)cc(=O)c2O)c(O)c(=O)c1    178%

We now examine a further compound.
Prompt: Tell me reported T/C for "CC(C)c1ccc(C(c2ccco2)c2ccc(C(C)C)cc(=O)c2O)c(O)c(=O)c1" , tested with P388.
Completion: 177%
